Compiled literature IC50, tested on Serine/threonine-protein kinase mTOR (Homo sapiens, UniProt P42345).

>  <COMPOUND>
CNC(=O)c1ccc(NC(=O)Nc2ccc(-c3nc(N4CCOCC4)c4ccc(-c5cncnc5)cc4n3)cc2)cc1

>  <IC50>
< 0.05 µM

$$$$
>  <COMPOUND>
CC(O)c1ccc(-c2cnc3c(N4CCOCC4)nc(-c4ccc(NC(=O)Nc5ccc(C(=O)N(C)C)cc5)cc4)nc3c2)o1 (stereo not shown)

>  <IC50>
< 0.05 µM

$$$$
>  <COMPOUND>
FC(F)c1nc2ccccc2n1-c1nc(NC2(Cc3ccc(Br)cc3)CCCCC2)nc(N2CCOCC2)n1

>  <IC50>
> 0.5 µM

$$$$
>  <COMPOUND>
C[C@H](O)C(=O)N1CCN(c2nc3c(N4CCOCC4)nc(-c4cnc(N)nc4)nc3n2CC(F)(F)F)CC1

>  <IC50>
< 0.01 µM

$$$$
>  <COMPOUND>
COc1cc(-c2cccc(NS(=O)(=O)CCCF)c2F)cc2c(N3CCOCC3)nc(-c3cnc(N)nc3)nc12

>  <IC50>
0.1 to 1 µM

$$$$
>  <COMPOUND>
CN(C)C(=O)c1ccc(NC(=O)Nc2ccc(-c3nc(N4CCOCC4)c4ccc(-c5cnn(C)c5)cc4n3)cn2)cc1

>  <IC50>
< 0.05 µM

$$$$

Which IC50 is reported for this compound? "CN(C)C(=O)c1ccc(NC(=O)Nc2ccc(-c3nc(N4CCOCC4)c4ncc(-c5cccnc5)cc4n3)cc2)c(F)c1"
< 0.05 µM

---

Compiled literature IC50, tested on Serine/threonine-protein kinase mTOR (Homo sapiens).

>  <MOLECULE>
Cc1ccc(-c2ccc3c(N4CCOCC4)nc(-c4ccc(NC(=O)Nc5ccc(C(=O)N(C)C)cc5)cc4F)nc3c2)cn1

>  <IC50>
< 50 nM

$$$$

# value lookup — system Serine/threonine-protein kinase mTOR (Homo sapiens), readout IC50, item "Cc1nc(N)ncc1-c1nc(N2CCOCC2)c2nc(NCCNS(C)(=O)=O)n(CC3CC3)c2n1"
≥ 500 nM

# value lookup — system Serine/threonine-protein kinase mTOR (Homo sapiens), readout IC50, item "COc1ccc(-c2nc(C(N)=O)c3[nH]c(=O)n(-c4ccccc4OC)c3n2)cn1"
10100 to 20000 nM

# value lookup — system Serine/threonine-protein kinase mTOR (Homo sapiens), readout IC50, item "CC(C)Cn1c(N2CCN(C=O)[C@H](C)C2)nc2c(N3CCOCC3)nc(-c3cnc(N)nc3)nc21"
10 to 30 nM

# value lookup — system Serine/threonine-protein kinase mTOR (Homo sapiens), readout IC50, item "O=S(=O)(Cc1ccc(F)cc1)c1cc(-c2cccc(O)c2)cc(N2CCOCC2)c1"
4270 nM

# value lookup — system Serine/threonine-protein kinase mTOR (Homo sapiens), readout IC50, item CC(O)C(=O)N1CCN(Cc2ccc3c(N4CCOCC4)nc(-c4cnc(N)nc4)nc3c2)CC1 (stereo not drawn)
201 to 10000 nM

# value lookup — system Serine/threonine-protein kinase mTOR (Homo sapiens), readout IC50, item "Cc1nn(C)cc1-n1c(=O)n(C)c2cnc3ccc(-c4cccc(S(=O)(=O)N(C)C)c4)cc3c21"
107 nM

# value lookup — system Serine/threonine-protein kinase mTOR (Homo sapiens), readout IC50, item "O=S1(=O)CCC(c2nc3c(-c4cnc5ccc(F)cc5c4)cnn3c3[nH]cc(Cl)c23)CC1"
1 to 10 nM

# value lookup — system Serine/threonine-protein kinase mTOR (Homo sapiens), readout IC50, item Cc1nc(N)ncc1-c1nc(N2CCOCC2)c2nc(N3CCC(N(C)C)C3)n(CC3CC3)c2n1 (stereo not drawn)
≥ 500 nM

# value lookup — system Serine/threonine-protein kinase mTOR (Homo sapiens), readout IC50, item "COc1ccc(CC(C)(C)Nc2nc(N3CCOCC3)nc(-n3c(C(F)F)nc4ccccc43)n2)cc1"
> 500 nM

# value lookup — system Serine/threonine-protein kinase mTOR (Homo sapiens), readout IC50, item "CNC(=O)Nc1ccc(-c2nc(N3CCOC[C@H]3C)nc3c2cnn3CC(C)(C)O)cc1"
< 110 nM

# value lookup — system Serine/threonine-protein kinase mTOR (Homo sapiens), readout IC50, item Cc1noc(C)c1-c1ccc2c(N3CCOCC3)nc(-c3ccc(NC(=O)Nc4ccc(C(=O)N5CCC(N(C)C)C5)cc4)c(F)c3)nc2c1 (stereo in doubt)
50 to 200 nM

# value lookup — system Serine/threonine-protein kinase mTOR (Homo sapiens), readout IC50, item "COc1cc(-c2cccc(NS(=O)(=O)CCCF)c2F)cc2c(N3CCOC[C@H]3C)nc(-c3cnc4[nH]ccc4c3)nc12"
100 to 1000 nM

# value lookup — system Serine/threonine-protein kinase mTOR (Homo sapiens), readout IC50, item Cn1ccc(-c2ccc(-c3cnn4c5c(c(C6CC7CCC(C6)N7C(=O)C(C)(CO)CO)nc34)C(=O)CCN5)cn2)n1 (stereo not drawn)
< 10 nM

# value lookup — system Serine/threonine-protein kinase mTOR (Homo sapiens), readout IC50, item "Oc1cccc(-c2nc(N3CCOCC3)nc3c2ncn3C/C=C/c2ccccc2)c1"
< 1000 nM
